System: HCV replicon 1b
ASSAY_METHOD_TEXT: Cell-based HCV replicon assay (TaqMan), genotype 1b replicon
SETTINGS: Hepatitis C virus, 72 h, HCV 1b replicon cells, replicon RNA by TaqMan on day 3; EC90 = concentration for ΔCT=3.2 over baseline
QUANTITY_NAME: EC90 (nM)
Please state the figure in nM; there is no need to write the unit.

Some entries whose results are on file:
- SMI: "COC(=O)N[C@H](C(=O)N1CCC[C@H]1c1ncc(-c2ccc(-c3ccc(-c4cnc([C@@H]5C[Si](C)(C)CN5C(=O)[C@@H](NC(=O)OC)C5CCCCC5)[nH]4)cc3)cc2)[nH]1)C1CCCCC1"
  DISPLAY_UNIT: "nM"
  EC90: 0.04
- SMI: "COC(=O)N[C@H](C(=O)N1C[C@H](F)C[C@H]1c1ncc(-c2ccc(-c3ccc(-c4cnc([C@@H]5C[Si](C)(C)CN5C(=O)[C@@H](NC(=O)OC)C(C)C)[nH]4)cc3)cc2)[nH]1)C(C)C"
  DISPLAY_UNIT: "nM"
  EC90: 0.009
- SMI: "COC(=O)N[C@H](C(=O)N1CCC[C@H]1c1nc(Cl)c(-c2ccc(-c3ccc(-c4[nH]c([C@@H]5C[Si](C)(C)CN5C(=O)[C@@H](NC(=O)OC)C(C)C)nc4Cl)cc3)cc2)[nH]1)C(C)C"
  DISPLAY_UNIT: "nM"
  EC90: 217

EC90 recorded for this compound, COC(=O)N[C@H](C(=O)N1CCC[C@H]1c1ncc(-c2ccc(-c3ccc(-c4cnc([C@@H]5C[Si](C)(C)CN5C(=O)[C@@H](NC(=O)OC)[C@@H](C)OC)[nH]4)cc3)cc2)[nH]1)[C@@H](C)OC , is 4.77

----------
Tested on: HCV replicon 1b
ASSAY_METHOD_TEXT: Cell-based HCV replicon assay (TaqMan), genotype 1b replicon
SETTINGS: Hepatitis C virus, 72 h, HCV 1b replicon cells, replicon RNA by TaqMan on day 3; EC90 = concentration for ΔCT=3.2 over baseline
QUANTITY_NAME: EC90 (nM)
Please state the figure in nM; there is no need to write the unit.

Some entries whose results are on file:
- COMPOUND: "COC(=O)N[C@H](C(=O)N1C[C@H](F)C[C@H]1c1ncc(-c2ccc(C#Cc3ccc(-c4cnc([C@@H]5C[Si](C)(C)CN5C(=O)[C@@H](NC(=O)OC)C(C)OC)[nH]4)cc3)cc2)[nH]1)C(C)C (stereo partly shown) [Compound 59]"
  EC90 [nM]: 0.02
- COMPOUND: "COC(=O)N[C@H](C(=O)N1CCC[C@H]1c1ncc(-c2ccc(-c3ccc(-c4cnc([C@@H]5C[Si](C)(C)CN5C(=O)[C@@H](NC(=O)OC)C5CCOCC5)[nH]4)cc3)cc2)[nH]1)C1CCOCC1 [Compound 33]"
  EC90 [nM]: 0.09
- COMPOUND: "COC(=O)N[C@H](C(=O)N1CCC[C@H]1c1ncc(-c2ccc(-c3ccc(-c4cnc([C@@H]5C[Si](C)(C)CN5C(=O)[C@@H](NC(=O)OC)C(C)C)[nH]4)cc3)cc2)[nH]1)C(C)C [Compound 3]"
  EC90 [nM]: 0.005

Now turn to the next compound.
EC90 recorded for this compound, COC(=O)N[C@@H](C)C(=O)N1C[Si](C)(C)C[C@H]1c1nc(Cl)c(-c2ccc(-c3ccc(-c4[nH]c([C@@H]5C[C@H]6C[C@H]6N5C(=O)[C@H](C)NC(=O)OC)nc4Cl)cc3)cc2)[nH]1 [Compound 52] , is 0.007

----------
# Lookup of reported EC90 keyed by entry
Tested on: HCV replicon 1b
ASSAY_METHOD_TEXT: Cell-based HCV replicon assay (TaqMan), genotype 1b replicon
SETTINGS: Hepatitis C virus, 72 h, HCV 1b replicon cells, replicon RNA by TaqMan on day 3; EC90 = concentration for ΔCT=3.2 over baseline
Please state the figure in nM; there is no need to write the unit.

Some entries whose results are on file:
- COMPOUND: "COC(=O)N[C@@H](CC1CC1)C(=O)N1CCC[C@H]1c1ncc(-c2ccc(-c3ccc(-c4cnc([C@@H]5C[Si](C)(C)CN5C(=O)[C@H](CC5CC5)NC(=O)OC)[nH]4)cc3)cc2)[nH]1 [Compound 37]"
  EC90 / nM: 0.03
- COMPOUND: "COC(=O)N[C@H](C(=O)N1C[Si](C)(C)C[C@H]1c1ncc(-c2ccc(-c3ccc(-c4ncc([C@@H]5C[C@H]6C[C@H]6N5C(=O)[C@@H](NC(=O)OC)C(C)C)[nH]4)cc3)cc2)[nH]1)C(C)C [Compound 69]"
  EC90 / nM: 0.019

EC90 recorded for this compound, COC(=O)N[C@@H](Cc1c[nH]c2ccccc12)C(=O)N1CCC[C@H]1c1ncc(-c2ccc(-c3ccc(-c4cnc([C@@H]5C[Si](C)(C)CN5C(=O)[C@H](Cc5c[nH]c6ccccc56)NC(=O)OC)[nH]4)cc3)cc2)[nH]1 [Compound 17] , is 1000

----------
# Lookup of reported log10(EC90) keyed by entry
System: HCV replicon 1b
ASSAY_METHOD_TEXT: Cell-based HCV replicon assay (TaqMan), genotype 1b replicon
SETTINGS: Hepatitis C virus, 72 h, HCV 1b replicon cells, replicon RNA by TaqMan on day 3; EC90 = concentration for ΔCT=3.2 over baseline
Field: value | Transform: log10 | Quantity: EC90 | Unit: nM

log10(EC90) recorded for this molecule, CCC[C@H](NC(=O)OC)C(=O)N1CCC[C@H]1c1ncc(-c2ccc(-c3ccc(-c4cnc([C@@H]5C[Si](C)(C)CN5C(=O)[C@H](CCC)NC(=O)OC)[nH]4)cc3)cc2)[nH]1 [Compound 15] , is 1.66

log10(EC90) recorded for this molecule, COC(=O)N[C@H](C(=O)N1CCC[C@H]1c1ncc(-c2ccc(-c3ccc(-c4cnc([C@@H]5C[Si](C)(C)CN5C(=O)[C@@H](NC(=O)OC)C5CCCC5)[nH]4)cc3)cc2)[nH]1)C1CCCC1 [Compound 24] , is 1.24

log10(EC90) recorded for this molecule, COC(=O)N[C@H](C(=O)N1CCC[C@H]1c1ncc(-c2ccc(-c3ccc(-c4cnc([C@@H]5C[Si](C)(C)CN5C(=O)[C@@H](NC(=O)OC)[C@H](O)C(C)C)[nH]4)cc3)cc2)[nH]1)[C@H](O)C(C)C [Compound 39] , is -1.52

log10(EC90) recorded for this molecule, COC(=O)N[C@H](C(=O)N1CCC[C@H]1c1ncc(-c2ccc(-c3ccc(-c4cnc([C@@H]5C[Si](C)(C)CN5C(=O)[C@@H](NC(=O)OC)C(C)C)[nH]4)c(OC)c3)cc2)[nH]1)C(C)C [Compound 70] , is -2.22

log10(EC90) recorded for this molecule, COC(=O)N[C@H](C(=O)N1C[Si](C)(C)C[C@H]1c1ncc(-c2ccc(-c3ccc4[nH]c([C@@H]5CC(F)(F)CN5C(=O)[C@@H](NC(=O)OC)C(C)C)nc4c3)cc2F)[nH]1)C(C)C [Compound 71] , is -2.30

----------
System: HCV replicon 1b
ASSAY_METHOD_TEXT: Cell-based HCV replicon assay (TaqMan), genotype 1b replicon
SETTINGS: Hepatitis C virus, 72 h, HCV 1b replicon cells, replicon RNA by TaqMan on day 3; EC90 = concentration for ΔCT=3.2 over baseline
# Lookup of reported EC90 keyed by entry
Please state the figure in nM; there is no need to write the unit.

Some entries whose results are on file:
- SMI: "CC[C@@H](O)[C@H](NC(=O)OC)C(=O)N1CCC[C@H]1c1ncc(-c2ccc(-c3ccc(-c4cnc([C@@H]5C[Si](C)(C)CN5C(=O)[C@@H](NC(=O)OC)[C@H](O)CC)[nH]4)cc3)cc2)[nH]1"
  QUANTITY_NAME: "EC90"
  DISPLAY_UNIT: "nM"
  NUMBER: 0.21
- SMI: "CCS(=O)(=O)N1CCC(NC(=O)c2ccc(-c3ccc(-c4cnc([C@@H]5C[Si](C)(C)CN5C(=O)[C@@H](NC(=O)OC)C(C)C)[nH]4)cc3)cc2)CC1"
  QUANTITY_NAME: "EC90"
  DISPLAY_UNIT: "nM"
  NUMBER: 0.028

Now turn to the next compound.
EC90 recorded for this compound, COC(=O)N[C@H](C(=O)N1C[Si](C)(C)C[C@H]1c1nc(Cl)c(-c2ccc(-c3ccc(-c4[nH]c([C@@H]5C[C@H]6C[C@H]6N5C(=O)[C@@H](NC(=O)OC)C5CC5)nc4Cl)cc3)cc2)[nH]1)C1CC1 , is 0.01

----------
Tested on: HCV replicon 1b
ASSAY_METHOD_TEXT: Cell-based HCV replicon assay (TaqMan), genotype 1b replicon
SETTINGS: Hepatitis C virus, 72 h, HCV 1b replicon cells, replicon RNA by TaqMan on day 3; EC90 = concentration for ΔCT=3.2 over baseline
QUANTITY_NAME: EC90 (nM)
Please state the figure in nM; there is no need to write the unit.

EC90 recorded for this compound, COC(=O)N[C@H](C(=O)N1CCC[C@H]1c1ncc(-c2ccc(-c3ccc(-c4cnc([C@@H]5C[Si](C)(C)CN5C(=O)[C@@H](NC(=O)OC)C(C)(C)OC)[nH]4)cc3)cc2)[nH]1)C(C)(C)OC , is 0.09

EC90 recorded for this compound, COC(=O)N[C@@H](Cc1cccc(O)c1)C(=O)N1CCC[C@H]1c1ncc(-c2ccc(-c3ccc(-c4cnc([C@@H]5C[Si](C)(C)CN5C(=O)[C@H](Cc5cccc(O)c5)NC(=O)OC)[nH]4)cc3)cc2)[nH]1 , is 387

EC90 recorded for this compound, CCN(CC)[C@@H](C(=O)N1C[Si](C)(C)C[C@H]1c1nc(Cl)c(-c2ccc(-c3ccc(-c4[nH]c([C@@H]5C[C@H]6C[C@H]6N5C(=O)[C@@H](c5ccccc5)N(CC)CC)nc4Cl)cc3)cc2)[nH]1)c1ccccc1 , is 0.019
